Every entry's value here was drawn from ChEMBL document CHEMBL1201862.

In this section we review reported GI50 values for a set of compounds.
tested on: EKVX; test: NCI tumour cell line growth inhibition, 48 h
Calls of active or inactive are those of the source. Rule as the data show it: active = GI50 up to about 1.1 µM and inactive = higher.

Sample records with GI50:
CCc1ccccc1-n1c2nc(=O)n(C)c(=O)c-2nc2ccccc21: 12.1 µM (inactive)
C=C(c1ccccc1)[C@@]1(O)CC[C@@H]1N(CC#N)Cc1ccccc1: 37.7 µM (inactive)

For the compound CCC(CCCC[C@@H]1CC[C@H]2CC(=O)C[C@@H]12)OC (stereo partly drawn) , give its measured GI50 value.
> 100 µM (inactive)

----------
test system: HCT-116; assay: NCI tumour cell line growth inhibition, 48 h
Active and inactive are the calls of the source. Rule as the data show it: active = GI50 up to about 1.1 µM and inactive = higher.
measurement-label: GI50

O=S(=O)(c1ccc(/N=C2\NC(c3ccc(O)cc3)(c3ccccc3O)c3ccccc32)cc1)c1ccc(/N=C2/NC(c3ccc(O)cc3)(c3ccccc3O)c3ccccc32)cc1 (centres undefined): 2.23 µM (inactive)
COc1cc(Br)c(C2OCCCO2)cc1OCc1ccccc1: 39.7 µM (inactive)
Nc1ccc2nc(-c3ccccn3)c(-c3ccccn3)nc2c1: > 100 µM (inactive)
O=C(NN1C(=O)C=CC1=O)c1ccccc1Nc1ccccc1C(=O)NN1C(=O)C=CC1=O: > 100 µM (inactive)
CC(C)(C)C(=O)N1C(C(=O)O)Cc2ccccc2[C@@H]1Cc1ccccc1 (some centres undefined): > 100 µM (inactive)

Please respond with reported GI50 (system HCT-116) for COc1ccc(C2=C(Cl)c3cc(OC)c(OC)cc3C2Cl)cc1OC (centres undefined) .
15.2 µM (inactive)

Please respond with reported GI50 (system HCT-116) for O=C(O)/C(O)=C1/C=C(c2ccccc2)c2ccccc21 .
19.6 µM (inactive)

Please respond with reported GI50 (system HCT-116) for CC(=O)OCC(OC(C)=O)C(OC(C)=O)C(OC(C)=O)C(=O)CNn1c(-c2ccccc2)nc2ccc(Br)cc2c1=O (centres undefined) .
> 100 µM (inactive)

Please respond with reported GI50 (system HCT-116) for CC(=O)OC1C=CC2CCN3C(=O)c4cc5c(cc4[C@H]1C23)OCO5 (some centres undefined) .
> 100 µM (inactive)

Please respond with reported GI50 (system HCT-116) for NC(=S)N/N=C1/C(=O)N(c2ccccc2)C(=O)C1C(=O)Nc1ccccc1 (centres undefined) .
> 100 µM (inactive)

Please respond with reported GI50 (system HCT-116) for CC(C)OP(=O)(OC(C)C)/C(F)=N/Nc1ccc([N+](=O)[O-])cc1 .
> 100 µM (inactive)

Please respond with reported GI50 (system HCT-116) for COC(=O)/C=C1\C(=O)Nc2ccc(Br)cc21 .
1.36 µM (inactive)
